Recorded values, source patent US20240270821A1.

Target: hGLP-1R (Homo sapiens, UniProt P43220)
Sequence (P43220 24-463): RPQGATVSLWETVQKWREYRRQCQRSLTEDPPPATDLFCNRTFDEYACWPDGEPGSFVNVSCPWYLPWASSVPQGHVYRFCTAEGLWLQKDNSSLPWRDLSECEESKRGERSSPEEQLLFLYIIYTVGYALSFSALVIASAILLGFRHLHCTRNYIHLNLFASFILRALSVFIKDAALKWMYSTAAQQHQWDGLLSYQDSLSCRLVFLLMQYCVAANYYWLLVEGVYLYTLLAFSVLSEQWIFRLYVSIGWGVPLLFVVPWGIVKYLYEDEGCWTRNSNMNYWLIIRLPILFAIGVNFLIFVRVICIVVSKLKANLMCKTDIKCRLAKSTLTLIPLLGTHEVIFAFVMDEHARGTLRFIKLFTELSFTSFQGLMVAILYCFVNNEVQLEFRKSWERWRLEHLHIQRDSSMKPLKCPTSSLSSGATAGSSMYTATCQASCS
Experiment: cell-based or functional assay
Kindly supply the reported cAMP Rel EC50, nM (1% HSA) values for the records listed here.
Answer format: value, then unit.

Query YXQGTFTSDFSQXLDKKAQXAFIEYLLEXGPSSGAPPPSGS (synthetic construct; SITE 2: note = 2-Aminoisobutyric Acid; SITE 13: note = alpha-methyl-leucine; SITE 17: note = Lysine is chemically modified through conjugation of the epsilon-amino group of the Lysine side chain with (gamma-Glu)2-CO-(CH2)16-CO2H; SITE 20: note = 2-Aminoisobutyric Acid; SITE 29:) [Example 784] yields cAMP Rel EC50, nM (1% HSA) of 284 nM

Query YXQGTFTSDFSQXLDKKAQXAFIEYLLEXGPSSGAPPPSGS (synthetic construct; SITE 2: note = 2-Aminoisobutyric Acid; SITE 13: note = alpha-methyl-leucine; SITE 17: note = Lysine is chemically modified through conjugation of the epsilon-amino group of the Lysine side chain with (2-[2-(2-Amino-ethoxy)-ethoxy]-acetyl)-(gamma-Glu)-CO-(CH2) 16-CO2H; SITE 20: n) [Example 151] yields cAMP Rel EC50, nM (1% HSA) of 384 nM

Query YXQGTFTSDXSXXLDKKAQXAFIEYLIAGGPSSGEPPPSGE (non-natural residues (Aib, 4Pal, Orn, αMeL, Me4Pal); lipidated K; amide; synthetic construct; SITE 2: note = 2-Aminoisobutyric Acid; SITE 10: note = 3-(4-Pyridyl)-L-alanine; SITE 12: note = L-ornithine; SITE 13: note = alpha-methyl-leucine; SITE 17: note = Lysine is chemically modified through conjugation of the epsilon-amino group of the Lysine side chain with (gamma-Gl)) [Example 979] yields cAMP Rel EC50, nM (1% HSA) of 257 nM

Query YXQGTFTSDFSXXLDKKAQXAFIEYLLEGGXSSGAPPPGGS (synthetic construct; SITE 2: note = 2-Aminoisobutyric Acid; SITE 12: note = L-ornithine; SITE 13: note = alpha-methyl-leucine; SITE 17: note = Lysine is chemically modified through conjugation of the epsilon-amino group of the Lysine side chain with (2-[2-(2-Amino-ethoxy)-ethoxy]-acetyl)-(gamma-Glu)) [Example 163] yields cAMP Rel EC50, nM (1% HSA) of 762 nM

Query YXQGTFTSDXSXXLDKKAQXAFIEYLIAGGPSSGEPPPSGTEE (Aib, 4Pal, Orn, αMeL, Me4Pal; K (γGlu)2-C18 diacid; amide; synthetic construct; SITE 2: note = 2-Aminoisobutyric Acid; SITE 10: note = 3-(4-Pyridyl)-L-alanine; SITE 12: note = L-ornithine; SITE 13: note = alpha-methyl-leucine; SITE 17: note = Lysine is chemically modified through conjugation of the epsilon-amino group of the Lysine side chain with (gamma-Gl)) [Example 981] yields cAMP Rel EC50, nM (1% HSA) of 330 nM

Query YXQGTXTSDYSILLDKKAQXAFIEYLLEGGPSSGAPPPS (not fully specified; synthetic construct; SITE 2: note = 2-Aminoisobutyric Acid; SITE 6: note = alpha-methyl-2-fluoro-L-phenylalanine; SITE 17: note = Lysine is chemically modified through conjugation of the epsilon-amino group of the Lysine side chain with (2-[2-(2-Amino-ethoxy)-ethoxy]-acetyl)2-(gamma-Glu)-CO-(CH2 )18) [Example 385] yields cAMP Rel EC50, nM (1% HSA) of 86.1 nM

Query YXQGTFTSDXSXXLDXKAQXQFIEXLLEGGPSSGAPPPSGSEE (non-natural residues; acylated Lys; C-terminal amide; synthetic construct; SITE 2: note = 2-Aminoisobutyric Acid; SITE 10: note = 3-(4-Pyridyl)-L-alanine; SITE 12: note = L-ornithine; SITE 13: note = alpha-methyl-leucine; SITE 16: note = L-ornithine; SITE 17: note = Lysine is chemically modified through conjugation of the epsilon-amino group of the Lys) [Example 975] yields cAMP Rel EC50, nM (1% HSA) of 1810 nM

Query YXQGTFTSDXSQXLDXKAQXEFIEXLLAGGPSSGAPPPSGSEE (Aib, 4Pal, αMeL, Orn, Me4Pal, αMeY; γGlu2-C18 diacid Lys; amide; synthetic construct; SITE 2: note = 2-Aminoisobutyric Acid; SITE 10: note = 3-(4-Pyridyl)-L-alanine; SITE 13: note = alpha-methyl-leucine; SITE 16: note = L-ornithine; SITE 17: note = Lysine is chemically modified through conjugation of the epsilon-amino group of the Lysine side chain with (gamma-Gl)) [Example 999] yields cAMP Rel EC50, nM (1% HSA) of 3020 nM

Query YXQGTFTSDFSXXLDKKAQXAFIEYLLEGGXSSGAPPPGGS (acylated; synthetic construct; SITE 2: note = 2-Aminoisobutyric Acid; SITE 12: note = L-ornithine; SITE 13: note = alpha-methyl-leucine; SITE 17: note = Lysine is chemically modified through conjugation of the epsilon-amino group of the Lysine side chain with (2-[2-(2-Amino-ethoxy)-ethoxy]-acetyl)-(gamma-Glu)) [Example 234] yields cAMP Rel EC50, nM (1% HSA) of 604 nM

Query YXQGTFTSDXSQXLDXKAQXAFIEXLIEGGPSSGAPPPSGSEE (Aib, 4Pal, Orn, Me4Pal, αMeY; acylated lysine; amide; synthetic construct; SITE 2: note = 2-Aminoisobutyric Acid; SITE 10: note = 3-(4-Pyridyl)-L-alanine; SITE 13: note = alpha-methyl-leucine; SITE 16: note = L-ornithine; SITE 17: note = Lysine is chemically modified through conjugation of the epsilon-amino group of the Lysine side chain with (2-[2-(2-) [Example 1041] yields cAMP Rel EC50, nM (1% HSA) of 316 nM

Query YXQGTFTSDFSRXLDKKAQXAFIEYLLEGGESSGAPPPSGS (synthetic construct; SITE 2: note = 2-Aminoisobutyric Acid; SITE 13: note = alpha-methyl-leucine; SITE 17: note = Lysine is chemically modified through conjugation of the epsilon-amino group of the Lysine side chain with (2-[2-(2-Amino-ethoxy)-ethoxy]-acetyl)-(gamma-Glu)-CO-(CH2) 16-CO2H; SITE 20: n) [Example 148] yields cAMP Rel EC50, nM (1% HSA) of 870 nM

Query YXQGTFTSDFSXXLDKKAQXAFIEYLLEXGPSSGEPPPSGT (synthetic construct; SITE 2: note = 2-Aminoisobutyric Acid; SITE 12: note = L-ornithine; SITE 13: note = alpha-methyl-leucine; SITE 17: note = Lysine is chemically modified through conjugation of the epsilon-amino group of the Lysine side chain with (2-[2-(2-Amino-ethoxy)-ethoxy]-acetyl)2-(gamma-Glu)) [Example 167] yields cAMP Rel EC50, nM (1% HSA) of 1300 nM
